test system: SW-620 colon; assay: NCI-60 one-dose screen, 48 h; settings: 10 µM unless noted
This is part of a sample that, as a whole, favours compounds with a hit. Of some 83,000 tested, about 20% had one in any assay. Activity calls are given as the source filed them. Rule for the calls: active = growth percent below 10; inactive = the rest.
Outcomes: True for active, False for inactive

Compound: COC(=O)C1=C(C)NC(C)=C(C(=O)OCC(C)C)C1c1ccccc1[N+](=O)[O-] (centres undefined)
Group Label: False

Compound: CCN=C1C=CC(=C(c2ccc(N(C)C)cc2)c2ccc(N(C)C)cc2)c2ccccc21
Group Label: True

Compound: COC(=O)C1=Nc2ccc(F)cc2/C1=C\c1sc(Nc2ccc(O)cc2)nc1O
Group Label: False

Compound: COc1cccc2c(N=NC(=O)c3ccc(S(N)(=O)=O)cc3)c(O)[nH]c12
Group Label: False

Compound: COc1cc(N2C(=O)[C@H](c3ccccc3)C2c2ccc(SC)cc2)cc(OC)c1OC (some centres undefined)
Group Label: False

Compound: CCOC(=O)c1c(-c2ccccc2)n2c(=O)cc(C)c3c(O)c(O)cc1c32
Group Label: False

Compound: C=C(c1ccc(C(=O)O)cn1)c1cc2c(cc1C)C(C)(C)CCC2(C)C
Group Label: False

Compound: CCN1CCN(CC(=O)Nc2nc3ccc(NCc4ccc(Br)cc4)cc3s2)CC1
Group Label: True

Compound: COc1ccccc1-n1c(-c2cc(O)ccc2C)cn2c3c(=O)[nH]c(=O)n(C)c3nc12
Group Label: False

Compound: O=C(/C=C\c1ccco1)/C=C/c1ccco1
Group Label: False

Compound: CN1CCN(C(=O)c2cc(-c3ccc4ncnc(N5CCc6cc(F)c(Cl)cc65)c4c3)cnc2N)CC1
Group Label: True

Compound: CCOC(=O)c1cn2ncnc(Oc3ccc(NC(=O)NC4CC4)c(F)c3)c2c1C
Group Label: False

Compound: COc1cc(C(=O)/C=C/c2c(-c3cccs3)nc3ccccn23)cc(OC)c1OC
Group Label: True

Compound: COC(=O)c1c2c(n3ccc(C)cc13)C(=O)c1ccccc1C2=O
Group Label: False

Compound: CC1(C)CC2=C3C=C[C@@H]4[C@@]5(C)CC[C@H](O)C(C)(C)[C@@H]5CC[C@@]4(C)[C@]3(C)CC[C@@]2(C(=O)O)CC1=O
Group Label: False

Compound: CN(C)Cc1ccc(C(=O)Nc2ccc3ncnc(Nc4ccc(Oc5cccc(F)c5)c(Cl)c4)c3c2)cc1
Group Label: True

Compound: CC1=CCC[C@@H]2C1(C)CC[C@H](C)[C@@]2(C)CC1=CC(=O)C(SC(C)(C)C)=CC1=O (some centres undefined)
Group Label: False

Compound: CCOC(=O)c1c(C)c2c(n1C)CSc1cc(S(=O)(=O)c3ccccc3)c(=O)[nH]c1-2
Group Label: False

Compound: CC(C)c1ccc(C(=O)Nc2sc3cc(O)ccc3c2C#N)cc1
Group Label: False
